B1: FCHO1 (parent)
chain: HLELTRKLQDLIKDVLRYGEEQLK

Variants of: B1
Assay: protein stability index of a GFP-peptide fusion (GPS, HEK-293T) (PSI 1-6); higher = more stable;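 also: lentivirally expressed fusions sorted by FACS into six bins by GFP to DsRed ratio, PSI derived from sequencing read proportions per bin multiplied by bin number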
Conditions: c terminus: a fixed tail appended
endpoint: protein stability index
Respond numerically, and do not add a unit to the figure.

For orientation, consider the following solved cases.
-- ask Would you kindly share the measured protein stability index for `L8C` ?
-- reply 3.07

-- ask Would you kindly share the measured protein stability index for `K7N` ?
-- reply 2.03

-- ask Would you kindly share the measured protein stability index for `K13S` ?
-- reply 2

More entries:
-- ask Would you kindly share the measured protein stability index for `E3H` ?
-- reply 3.08
